assay: soluble on expression in E. coli; label from the status in PepcDB or PDB records
endpoint: soluble on expression in E. coli

>>> result("TGPQGPPGPAGPKGAKGETGPQGPPGPAGPKGAKGDSGVPLSYEFTQKVESSNGTAVFGLLSNGFVEVRITGSYSSDVFNIPYNYRPLKAGTQMALFSTSGVGVAKVGEDKITIQGYSRNAQCSGTVLYPHREF")
"not soluble"
>>> result("MGSDKIHHHHHHMITRLHEPYLALLQQAMLAATPSGSRVALDLGCGDGSKTRWLRACSASDALIVGVDRDGSVLRAADDMMFIAGDASHLPLRDACIDLVWCIAALNLFPHRHLALREMWRVLRHGGTLVVASAGEYWVRLRNHPAPLIAALPDTPLPLPPADGLDEEWLLLMAAAGFQPRQTQAYLLDGGRLAQVALINSEALTSYLSLPPCASPVADPEPRHLLIVTSARKG")
"not soluble"
>>> result("MKPLLETIDTRFGTTNKHAFSRGNTLPYTGVPFGMNYFVPQTSDQDGSWFFDPHLPIFQGIRLTHQPSPWIGDYSWLLLTPVTSQLGGDSLFHRQSSYDIDKACFQPHYLKLFSLRYQIETQLTPTCYGASIRLNQKQGKALSLYLHAADELTVEQVDKRTLALRQEGKTETNKNSLTMFTLEHHHHHH")
"not soluble"

====

experiment: soluble on expression in E. coli; label from the status in PepcDB or PDB records
endpoint: soluble on expression in E. coli

>>> result("MVEVLTLGVIQTTLDSTAAWNTDSGEPKISASEDSRAWYEIRRAMRALADHEDQPRIILLPELALPRTRLDDFERLVCSMNALAIVGVDYRLNHRTKSAKNEGLVLVPRNFWKRTPSRYAARVWFGKRDPAPAEASGFKEYMPPWAFHSDPNVYVFDAGPYGRIGVSICYDFMDIERALLYRGRVHHLFVIAYNRDVKLFESLAVSLSRTAFCNVVVCNTGYFGGSLVVSPYYEAFKRIGYSVDGGKVFTAQCVPLPVRDLDAAIHGFDTKPNATYKHLPPGFTTSMDHTAALPEGPSAVAIPLFTSDLEHHHHHH")
"not soluble"
>>> result("GPGSMVFFGVGATGGTGCGPKQACFPWLENSSATRCQRGGRINLRFMLDLPQGDTEAPSTNQKRAVYAFCPIVDELQVFTLKGAGRVSSLLQKTSSSGQASITPNPAPRYLSVFGFGRSGQKEYPERDVSNSTVVIAMRDIGLCNSPDSVAIVNMVILTIGMHDGKFNYISSDADTKEPDDSESGIPSGNSSGTGSPMESVQPAMVGFRPTCDESDHCIFSPTSPCVGPIRGMKNCGACYNTPDDIEGASIQVWTSYQGTDLERQPLLSGGMDPMGFRKFAGGKFVGNIKYAVSKIENTASGMMPGDETNSTP")
"not soluble"

====

experiment: soluble on expression in E. coli; label from the status in PepcDB or PDB records
endpoint: soluble on expression in E. coli

>>> result("MGSDKIHHHHHHMNLNALIDFMLVANNEGLGKASRASGISKATLSRRIADLEEQLGVRLIERSARGLKLTEAGEMLMARTEGPLGEVAEAMTATRDGVATPRGRLRVASPVLFSQLAMGRIGAGFYAAYPEVIIEVTAEDRLVDLVEEQFDVAIRINPDPDSRLVGRCFARDRLVVVAAPELPRPMPGAIRQTPAIVTSSFQPTHWKLDNGHLVLKPIPKLWFSSLMMVRDAAVAGGGAALIPQSIAWSQLASGQLVQWGTVSGAEPELWVLHTSRRLVSPKVRAFVDFICASNPDMSLVLKG")
"not soluble"
>>> result("MAMAVPVSARPQSPAEGFYAINNQFQTNGPKGFSEIKILANEDMFLRMDLPGVPDEGGLSVYHNRSQETVVVFAKAPKVHTHDSTERRYQTMTGIGCSCCAISSITTHMSDGVFRVILSKTRIDPHRSPCTDPALTGPVLQPHPLAFPQPTMAYESKQLPNGKLFVRADMPGVPKENFTVSVTNGRVKVTGQAPAVSHDSSGRFYSGDVAMLSTPVDIPSRRIKTIAKNGVIRLLIPPF")
"soluble"
>>> result("MAHHHHHHMERSLYYTPQLLWLQVMDRMPYEFTHYFVSSPPPHHEAMLSGIREQYGRPYSAAKPFDVELLGRLWNGHSRVMFATDNLVFSAVDHSVSDRWKEMGFQGTDPSTDFRGAGIFGLAQLVYLVEHHPEEWSAILTPDFMAAAAGLNVTMRLATMLGINSSLNQLSSSVLSKYSAREARLQLCRFIFDPSVDVATQRLSEVYCFAMRLLHYRWMRSTRNIMEFNQQLSSMYTELDRLLFLCNTLEELCSLL")
"not soluble"
>>> result("MKNIHSIEFYTGSKEELLPDFEKDFPYIASRAELDKYIGGYVPWHWHRTVELFYMESGSIEYDTPGGKILFPAGSGGMINPNVLHMTKAISQREKNIQLLHIFDVSLLAGEQGSRIEQKYIAPVITAPQIEVIPLFPGNAEEERILKLLAASFRLSSDEFGYEIKLREALTEIWLMLFELSCSMREKKGEHNKSNDKIKLMMIYIHEHYREKISILELAAAAYLSERECYRVFHDCLHMTPVEYITTYRLQIACQMLAKGQEPITVISHECGLGSSSYFGKVFREYAYCSPTEYRKKWQNSDM")
"soluble"
>>> result("MSLRPVPSGQDPIKVVHYSDIHVDQLYTEGSNAKCNKPICCRQVKIIRHTHKSWTDFSRPFTENDEPGKTDSPAGPFGEHTCDSPVSLEHSMYQAIKEIVPDASFTIFTGDVVDHSIWNTTWDYNKHQIIESYENMDKHLGIVYGTAGNHESHPTNAYQPSSIGGASSWIYDLLAGAWSRWIGHEAASKAAQIGAYSTKFPHGNLRVISLNTNLYYRGNFWLFQRKMIRDPSKQFDWLIEELHAAEKAGERVYIIGHMPPGDRNAFHDQSNYLNQIVNRYSSTIAAMFFGHTHRDHFQITYSEAPKKSFSNALLTSYVGPSLTPTSGMPSFRVYDVDPITFAVLDATTYSADMNSPTYQTQGPVWKKYYSAKETYGEGHHHHHH")
"not soluble"

Note: attention shifts to another entry.
Asked: Can you share its soluble on expression in E. coli? I mean this sequence: YALTEGEDYLVLDKPIPQEQPGKIEVLEFFGYFCVHCHHFDPLLLKLGKALPSDTYLRTEHVVWRPEMLGLARMAAAVKLSGLKYQANSAVFKAVYEQKIRLENRAVAGKWALSQKGFDGKKLMRAYDSPEAAAVALKMQKLTEQYGIDSTPTVIVGGKYRVIFNNGFDGGVHTIKELVAK
Given back: not soluble

====

assay: soluble on expression in E. coli; label from the status in PepcDB or PDB records
endpoint: soluble on expression in E. coli

Reference set (5 entries):
>>> result("MGSDKIHHHHHHMTIPTSYLNHTDAEAARKARATYRDGLVAPTSGIAPGFTQANMIVLPRDWAFDFLLYAQRNPKPCPVLDVSDPGSPTTLLAPGADLRTDLPLYRIWRDGKLAEETADATSAWAERDDLVAFLIGCSFTFETPMVEAGIEIRHMTDKSNVPMYLTNRPCRPAGRLKGNMVVSMRPIPASRVADAATISGRFPAVHGAPVHVGAPEQIGISDLSKPDFGDAVRIEPGEVPVFWACGVTPQAAVMASGVPFAITHAPGHMFITDIPDTAYHA")
"not soluble"
>>> result("FASFSNFTLKYHEKRFQQYGYGLMLNDTNFPGGSSGSPLIGKDNKLNSIYFGVLEIYQSGSLARNDIGMSQILRTPQ")
"not soluble"
>>> result("MAHHHHHHGPNTNPVAAWKALKEGNERFVAGRPQHPSQSVDHRAGLAAGQKPTAVIFGCADSRVAAEIIFDQGLGDMFVVRTAGHVIDSAVLGSIEYAVTVLNVPLIVVLGHDSCGAVNAALAAINDGTLPGGYVRDVVERVAPSVLLGRRDGLSRVDEFEQRHVHETVAILMARSSAISERIAGGSLAIVGVTYQLDDGRAVLRDHIGNIGEEV")
"soluble"
>>> result("MEERDSETGWRGSREGWLQAAYEALIEGGVESVKIMTLAARLKLSRTSFYWFFKDRADVLDALRSQWAGTTTAPLVAASAEYAESRAEAMLNVLACFLSGRFDARFEFAARSWGLQDPAMAAAVEAADAERLAALTDMLARWGHDPQEADVRARTVYLVQIGYISMRAEETLETRLARIPNYVEIYTGVRPEPREMARFRARLGLAV")
"not soluble"
>>> result("KLEFREVDKDALVNDEKLLREFFGIYVLAHYRNRPSDLAILLDMPNHLPFIVTVNGKPVCSLHIAVEGNLDDETIEKIKEGYKPKGQIIPDLMLKHYWDFEFPKLVGARVVRIATHPSVMDMGIGSFALAKIVEWAYGRDMDWVGSGFGVSPELLRFWAKNHFTPVHITPQRNE")
"not soluble"

Asked: State the recorded soluble on expression in E. coli for this entry: MGSLYTSELSRAVSESVAAALQRSFQGELRSASALGSGWSTSAELLNRNDSTERYFVKLSEPQAVSMFSAEFEGIQAMAESETVRVPAPICYGNTAERSFIVLEYLELGGIGNEAVYRDFGEKLAAMHRCSSGGRGYGWHRGNTIGSTPQLNTWMHSWADFFVENRLRYQLKLARSRQGGRLRNEDALLQRVHSVLQEHEIQHQVTPSLVHGDLWTGNVATLRNQNEVVIFDPATYYGDREVDLAMTELFGRLPRAFYQAYDASWPLPKGYREKRRVIYNLYHILNHGALFGGGYYDQAQSMIETILR
Given back: soluble

Asked: Which value of soluble on expression in E. coli has been reported for MKQTQRHDAIIELVKKQGYVSTEELVEHFSVSPQTIRRDLNDLAEQNMILRHHGGAALPSSSVNTPWHDRKATQTEEKERIARKVAAQIPNGSTLFIDIGTTPEAVAHALLGHSNLRIVTNNLNVANTLMAKEDFRIILAGGELRSRDGGIIGEATQDFIAQFRLDFGILGISGIDSDGSLLEFDYHEVRTKRAIIENSRHVMLVVDHSKFGRNAMVNMGSISMVDAVYTDTLPPPGVMQVLTENHIQLELCLEHHHHHH in the records?
Given back: soluble
